molecular target: Gal-1 (Homo sapiens); construct: made in house; host or cells: E. coli BL21(DE3); test: Pull-down assay with immobilized protein and LSM libraries; format: binding; details: H12 library; 1:1 binding assumed; read-out: Surface mapping KD (apparent)
Sequence (P09382 whole entry): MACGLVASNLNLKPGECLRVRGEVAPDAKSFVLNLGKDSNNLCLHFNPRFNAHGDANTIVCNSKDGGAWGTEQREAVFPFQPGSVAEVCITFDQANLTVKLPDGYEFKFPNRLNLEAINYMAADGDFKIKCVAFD
Endpoint: pKd
In plain terms, pKd is the concentration in mol/L turned into minus its base-10 logarithm.

Consider the following illustrative entries.
>  <Chemical Structure>
CSCC[C@@H](CC(=O)N[C@H]1CCC[C@@H]1C(=O)N[C@H]1CCC[C@@H]1C(=O)N[C@@H](CCCCN)CC(=O)N[C@H]1CCC[C@@H]1C(=O)N[C@H]1CCC[C@@H]1C(N)=O)NC(=O)[C@H]1CCC[C@@H]1NC(=O)[C@H]1CCC[C@@H]1N

>  <pKd>
3.76

$$$$
>  <Chemical Structure>
CC(C)[C@@H](CC(=O)N[C@H]1CCC[C@@H]1C(=O)N[C@H]1CCC[C@@H]1C(N)=O)NC(=O)[C@H]1CCC[C@@H]1NC(=O)[C@H]1CCC[C@@H]1NC(=O)C[C@H](Cc1ccccc1)NC(=O)[C@H]1CCC[C@@H]1NC(=O)[C@H]1CCC[C@@H]1N

>  <pKd>
3.77

$$$$
>  <Chemical Structure>
CC(C)C[C@@H](CC(=O)N[C@H]1CCC[C@@H]1C(=O)N[C@H]1CCC[C@@H]1C(=O)N[C@@H](CC(=O)O)CC(=O)N[C@H]1CCC[C@@H]1C(=O)N[C@H]1CCC[C@@H]1C(N)=O)NC(=O)[C@H]1CCC[C@@H]1NC(=O)[C@H]1CCC[C@@H]1N

>  <pKd>
3.33

$$$$

Summary: NCCCC[C@@H](CC(=O)N[C@H]1CCC[C@@H]1C(=O)N[C@H]1CCC[C@@H]1C(N)=O)NC(=O)[C@H]1CCC[C@@H]1NC(=O)[C@H]1CCC[C@@H]1NC(=O)C[C@H](Cc1ccccc1)NC(=O)[C@H]1CCC[C@@H]1NC(=O)[C@H]1CCC[C@@H]1N , Gal-1 (Homo sapiens), pKd = 3.61

---

Kd: recorded values
biological target: S100B (Homo sapiens, UniProt P04271); construct: made in house; host or cells: Escherichia coli BL21(DE3); assay: Competition pull-down with native ligand RSK1 (689–735); type: binding; conditions: H14 library; competitor peptide 200 µM; read-out: Surface mapping KD (apparent), competition
Sequence (P04271 whole entry): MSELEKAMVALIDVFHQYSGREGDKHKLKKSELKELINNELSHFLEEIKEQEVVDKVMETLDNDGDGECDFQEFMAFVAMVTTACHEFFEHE
Give a bare numeral; the unit µM is implied.

Consider the following illustrative entries.
>  <Chemical Structure>
N=C(N)NCCC[C@@H](CC(=O)N[C@H]1CCCC[C@@H]1C(N)=O)NC(=O)[C@H]1CCCC[C@@H]1NC(=O)[C@H]1CCCC[C@@H]1NC(=O)C[C@H](Cc1ccccc1)NC(=O)[C@H]1CCCC[C@@H]1N

>  <Endpoint>
Kd

>  <Meas Value>
406

$$$$
>  <Chemical Structure>
NC(=O)[C@H]1CCCC[C@@H]1NC(=O)C[C@H](CO)NC(=O)[C@H]1CCCC[C@@H]1NC(=O)[C@H]1CCCC[C@@H]1NC(=O)C[C@H](Cc1ccc(O)cc1)NC(=O)[C@H]1CCCC[C@@H]1N

>  <Endpoint>
Kd

>  <Meas Value>
399

$$$$
>  <Chemical Structure>
CC(C)[C@@H](CC(=O)N[C@H]1CCCC[C@@H]1C(=O)N[C@H]1CCCC[C@@H]1C(=O)N[C@@H](CO)CC(=O)N[C@H]1CCCC[C@@H]1C(N)=O)NC(=O)[C@H]1CCCC[C@@H]1N

>  <Endpoint>
Kd

>  <Meas Value>
460

$$$$

CC(C)C[C@@H](CC(=O)N[C@H]1CCCC[C@@H]1C(N)=O)NC(=O)[C@H]1CCCC[C@@H]1NC(=O)[C@H]1CCCC[C@@H]1NC(=O)C[C@@H](NC(=O)[C@H]1CCCC[C@@H]1N)C(C)C yielded Kd of 180

NC(=O)[C@H]1CCCC[C@@H]1NC(=O)C[C@H](CO)NC(=O)[C@H]1CCCC[C@@H]1NC(=O)[C@H]1CCCC[C@@H]1NC(=O)C[C@H](Cc1c[nH]c2ccccc12)NC(=O)[C@H]1CCCC[C@@H]1N yielded Kd of 434

CC(C)C[C@@H](CC(=O)N[C@H]1CCCC[C@@H]1C(=O)N[C@H]1CCCC[C@@H]1C(=O)N[C@@H](C)CC(=O)N[C@H]1CCCC[C@@H]1C(N)=O)NC(=O)[C@H]1CCCC[C@@H]1N yielded Kd of 294

CSCC[C@@H](CC(=O)N[C@H]1CCCC[C@@H]1C(=O)N[C@H]1CCCC[C@@H]1C(=O)N[C@H](CC(=O)N[C@H]1CCCC[C@@H]1C(N)=O)Cc1ccc(O)cc1)NC(=O)[C@H]1CCCC[C@@H]1N yielded Kd of 330

CC(C)C[C@@H](CC(=O)N[C@H]1CCCC[C@@H]1C(=O)N[C@H]1CCCC[C@@H]1C(=O)N[C@H](CC(=O)N[C@H]1CCCC[C@@H]1C(N)=O)C(C)C)NC(=O)[C@H]1CCCC[C@@H]1N yielded Kd of 213

CC(C)C[C@@H](CC(=O)N[C@H]1CCCC[C@@H]1C(N)=O)NC(=O)[C@H]1CCCC[C@@H]1NC(=O)[C@H]1CCCC[C@@H]1NC(=O)C[C@H](C)NC(=O)[C@H]1CCCC[C@@H]1N yielded Kd of 313

---

pKd: recorded values
target: CaM (Bos taurus); construct: made in house; host or cells: E. coli BL21 (DE3); assay: Pull-down assay with immobilized protein and LSM libraries; format: binding, bovine; conditions: H12 library; 1:2 stoichiometry assumed; read-out: Surface mapping KD (apparent)
In plain terms, pKd is the concentration in mol/L turned into minus its base-10 logarithm.

>  <Chemical Structure>
CC(C)[C@@H](CC(=O)N[C@H]1CCC[C@@H]1C(=O)N[C@H]1CCC[C@@H]1C(=O)N[C@H](CC(=O)N[C@H]1CCC[C@@H]1C(=O)N[C@H]1CCC[C@@H]1C(N)=O)Cc1ccccc1)NC(=O)[C@H]1CCC[C@@H]1NC(=O)[C@H]1CCC[C@@H]1N

>  <Endpoint>
pKd

>  <Meas Value>
3.89

$$$$

Query compound follows.
CSCC[C@@H](CC(=O)N[C@H]1CCC[C@@H]1C(=O)N[C@H]1CCC[C@@H]1C(N)=O)NC(=O)[C@H]1CCC[C@@H]1NC(=O)[C@H]1CCC[C@@H]1NC(=O)C[C@H](Cc1c[nH]c2ccccc12)NC(=O)[C@H]1CCC[C@@H]1NC(=O)[C@H]1CCC[C@@H]1N yielded pKd of 4.38

---

biological target: S100B (Homo sapiens, UniProt P04271); construct: made in house; host or cells: Escherichia coli BL21(DE3); assay: Competition pull-down with native ligand RSK1 (689–735); type: binding; conditions: H14 library; competitor peptide 200 µM; read-out: Surface mapping KD (apparent), competition
Endpoint: pKd
In plain terms, pKd is the concentration in mol/L turned into minus its base-10 logarithm.

Consider the following illustrative entries.
>  <Molecule>
CC[C@H](C)[C@@H](CC(=O)N[C@H]1CCCC[C@@H]1C(N)=O)NC(=O)[C@H]1CCCC[C@@H]1NC(=O)[C@H]1CCCC[C@@H]1NC(=O)C[C@H](Cc1ccc(O)cc1)NC(=O)[C@H]1CCCC[C@@H]1N [H14 YI]

>  <Assay Target>
S100B (Homo sapiens, UniProt P04271)

>  <Meas Value>
3.70

$$$$
>  <Molecule>
CSCC[C@@H](CC(=O)N[C@H]1CCCC[C@@H]1C(=O)N[C@H]1CCCC[C@@H]1C(=O)N[C@@H](CCC(N)=O)CC(=O)N[C@H]1CCCC[C@@H]1C(N)=O)NC(=O)[C@H]1CCCC[C@@H]1N [H14 MQ]

>  <Assay Target>
S100B (Homo sapiens, UniProt P04271)

>  <Meas Value>
3.40

$$$$

CC(C)[C@@H](CC(=O)N[C@H]1CCCC[C@@H]1C(N)=O)NC(=O)[C@H]1CCCC[C@@H]1NC(=O)[C@H]1CCCC[C@@H]1NC(=O)C[C@H](Cc1ccc(O)cc1)NC(=O)[C@H]1CCCC[C@@H]1N [H14 YV] yielded pKd of 3.43

C[C@@H](CC(=O)N[C@H]1CCCC[C@@H]1C(=O)N[C@H]1CCCC[C@@H]1C(=O)N[C@H](CC(=O)N[C@H]1CCCC[C@@H]1C(N)=O)Cc1ccccc1)NC(=O)[C@H]1CCCC[C@@H]1N [H14 AF] yielded pKd of 3.45

CC[C@H](C)[C@@H](CC(=O)N[C@H]1CCCC[C@@H]1C(=O)N[C@H]1CCCC[C@@H]1C(=O)N[C@H](CC(=O)N[C@H]1CCCC[C@@H]1C(N)=O)Cc1c[nH]c2ccccc12)NC(=O)[C@H]1CCCC[C@@H]1N [H14 IW] yielded pKd of 4.17

---

target: S100A4 (Homo sapiens, UniProt P26447); construct: made in house; host or cells: Escherichia coli BL21(DE3); assay: Pull-down assay with immobilized protein and LSM libraries; assay type: binding; conditions: H14 library; 1:1 binding assumed; read-out: Surface mapping KD (apparent)
Sequence (P26447 whole entry): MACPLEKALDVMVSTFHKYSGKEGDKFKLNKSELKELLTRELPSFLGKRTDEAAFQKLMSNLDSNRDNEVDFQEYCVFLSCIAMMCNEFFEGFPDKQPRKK
pKd: −log10 of the molar value.
pKd below 4 gives criterion not met; pKd at or above it gives criterion met.

>  <Chemical Structure>
NC(=O)[C@H]1CCCC[C@@H]1NC(=O)C[C@H](Cc1c[nH]c2ccccc12)NC(=O)[C@H]1CCCC[C@@H]1NC(=O)[C@H]1CCCC[C@@H]1NC(=O)C[C@H](CO)NC(=O)[C@H]1CCCC[C@@H]1N

>  <Assay Target>
S100A4 (Homo sapiens, UniProt P26447)

>  <Label Class>
criterion not met

$$$$
>  <Chemical Structure>
CSCC[C@@H](CC(=O)N[C@H]1CCCC[C@@H]1C(N)=O)NC(=O)[C@H]1CCCC[C@@H]1NC(=O)[C@H]1CCCC[C@@H]1NC(=O)C[C@H](CC(C)C)NC(=O)[C@H]1CCCC[C@@H]1N

>  <Assay Target>
S100A4 (Homo sapiens, UniProt P26447)

>  <Label Class>
criterion met

$$$$
>  <Chemical Structure>
CC[C@H](C)[C@@H](CC(=O)N[C@H]1CCCC[C@@H]1C(=O)N[C@H]1CCCC[C@@H]1C(=O)N[C@H](CC(=O)N[C@H]1CCCC[C@@H]1C(N)=O)Cc1c[nH]c2ccccc12)NC(=O)[C@H]1CCCC[C@@H]1N

>  <Assay Target>
S100A4 (Homo sapiens, UniProt P26447)

>  <Label Class>
criterion met

$$$$
>  <Chemical Structure>
N=C(N)NCCC[C@@H](CC(=O)N[C@H]1CCCC[C@@H]1C(N)=O)NC(=O)[C@H]1CCCC[C@@H]1NC(=O)[C@H]1CCCC[C@@H]1NC(=O)C[C@H](CCC(N)=O)NC(=O)[C@H]1CCCC[C@@H]1N

>  <Assay Target>
S100A4 (Homo sapiens, UniProt P26447)

>  <Label Class>
criterion not met

$$$$
>  <Chemical Structure>
NC(=O)[C@H]1CCCC[C@@H]1NC(=O)C[C@H](Cc1ccccc1)NC(=O)[C@H]1CCCC[C@@H]1NC(=O)[C@H]1CCCC[C@@H]1NC(=O)C[C@H](CO)NC(=O)[C@H]1CCCC[C@@H]1N

>  <Assay Target>
S100A4 (Homo sapiens, UniProt P26447)

>  <Label Class>
criterion met

$$$$
>  <Chemical Structure>
C[C@@H](O)[C@@H](CC(=O)N[C@H]1CCCC[C@@H]1C(N)=O)NC(=O)[C@H]1CCCC[C@@H]1NC(=O)[C@H]1CCCC[C@@H]1NC(=O)C[C@H](Cc1ccccc1)NC(=O)[C@H]1CCCC[C@@H]1N

>  <Assay Target>
S100A4 (Homo sapiens, UniProt P26447)

>  <Label Class>
criterion not met

$$$$

Could you verify whether the entry CC(C)[C@@H](CC(=O)N[C@H]1CCCC[C@@H]1C(=O)N[C@H]1CCCC[C@@H]1C(=O)N[C@H](CC(=O)N[C@H]1CCCC[C@@H]1C(N)=O)Cc1ccc(O)cc1)NC(=O)[C@H]1CCCC[C@@H]1N shows pKd of no less than 4?
criterion met

Could you verify whether the entry C[C@@H](CC(=O)N[C@H]1CCCC[C@@H]1C(N)=O)NC(=O)[C@H]1CCCC[C@@H]1NC(=O)[C@H]1CCCC[C@@H]1NC(=O)C[C@H](C)NC(=O)[C@H]1CCCC[C@@H]1N shows pKd of no less than 4?
criterion not met
